Hello, the source for this data is patent US9815787B2, in case you need it.

Target: OX2R (Homo sapiens)
Construct: expressed in transfected cells; host or cells: CHO (Chinese hamster ovary) cells constitutively expressing the OX2R gene and NFAT-luciferase (CHOOX2R)
Sequence (O43614 1-444): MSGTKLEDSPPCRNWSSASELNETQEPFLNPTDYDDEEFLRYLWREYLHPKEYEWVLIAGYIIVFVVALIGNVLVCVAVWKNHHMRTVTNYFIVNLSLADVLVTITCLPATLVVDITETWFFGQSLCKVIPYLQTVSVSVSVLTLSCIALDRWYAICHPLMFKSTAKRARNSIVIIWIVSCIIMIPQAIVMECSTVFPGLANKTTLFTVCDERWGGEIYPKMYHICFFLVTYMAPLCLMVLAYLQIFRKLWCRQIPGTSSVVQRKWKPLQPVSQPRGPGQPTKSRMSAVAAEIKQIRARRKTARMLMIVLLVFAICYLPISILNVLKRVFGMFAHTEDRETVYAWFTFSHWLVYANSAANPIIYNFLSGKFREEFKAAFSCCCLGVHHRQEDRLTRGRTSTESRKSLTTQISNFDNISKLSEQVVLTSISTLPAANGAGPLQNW
Experiment: Evaluation of agonist activity against OX2R (CHOOX2R cells, Fura2AM fluorescence, FDSS3000)
Type: cell-based
Settings: test compound 10 μM; CHOOX2R cells; relative to orexin-A as full agonist (100%)
Method: Evaluation of Agonist Activity Against OX2R NFAT-luciferase gene and OX2R gene were each constitutively expressed in CHO cell, which is a cell line derived from Chinese hamster ovary to establish a cell line (CHOOX2R). […] After washing, HEPES buffer (75 μL) was added, a test compound solution (25 μL) was added, and changes in the fluorescence intensity were measured by FDSS3000 (Hamamatsu Photonics K.K.). […]
Parameter threshold = 80%. Response is Yes when Response (10 μM (%)) meets or exceeds it, else No.

Ask: Is Response (10 μM (%)) for `COc1ccc(-c2cccc(C(=O)N(C)C)c2)cc1S(=O)(=O)Nc1cccc(NCCNC(=O)c2ccccc2C(F)(F)F)c1` at or above 80%?
Result: Yes

Ask: Is Response (10 μM (%)) for `COc1ccc(-c2cccc(C(=O)N(C)C)c2)cc1S(=O)(=O)Nc1cccc(NCCNC(=O)c2cncc(Cl)c2)c1` at or above 80%?
Result: Yes

Ask: Is Response (10 μM (%)) for `COc1ccc(-c2cccc(C(=O)N(C)C)c2)cc1S(=O)(=O)Nc1cccc(NCCNC(=O)c2sccc2C)c1` at or above 80%?
Result: No

Ask: Is Response (10 μM (%)) for `COc1ccccc1C(=O)NCCNc1cccc(NS(=O)(=O)c2cc(-c3cccc(C(=O)NCCO)c3)ccc2OC)c1` at or above 80%?
Result: Yes

Ask: Is Response (10 μM (%)) for `COc1cccc(C(=O)NCCNc2cccc(NS(=O)(=O)c3cc(-c4cccc(C(=O)N(C)C)c4)ccc3OC)c2)c1` at or above 80%?
Result: Yes

Ask: Is Response (10 μM (%)) for `COc1cccc(C(=O)NCCNc2cccc(NS(=O)(=O)c3cc(-c4cccc(OC)n4)ccc3OC)c2)c1` at or above 80%?
Result: No

###

Target: OX2R (Homo sapiens, UniProt O43614)
Construct: expressed in transfected cells; host or cells: CHO (Chinese hamster ovary) cells constitutively expressing the OX2R gene and NFAT-luciferase (CHOOX2R)
Experiment: Evaluation of agonist activity against OX2R (CHOOX2R cells, Fura2AM fluorescence, FDSS3000)
Type: cell-based
Settings: test compound 1.0 μM; CHOOX2R cells; relative to orexin-A as full agonist (100%)
Provide the recorded Response (1.0 μM (%)) for the entries that follow.
# output: bare number, implied unit %

Kindly note the recorded Response (1.0 μM (%)) for `COc1ccccc1C(=O)NCCNc1cccc(NS(=O)(=O)c2cc(-c3cccc(NCC(C)C)c3)ccc2OC)c1` , which is 37

Kindly note the recorded Response (1.0 μM (%)) for `COc1ccccc1C(=O)NCCNc1cccc(NS(=O)(=O)c2cc(-c3cccc(C(=O)NCCO)c3)ccc2OC)c1` , which is 51

Kindly note the recorded Response (1.0 μM (%)) for `COc1ccc(C(=O)NCCNc2cccc(NS(=O)(=O)c3cc(-c4cccc(C(=O)N(C)C)c4)ccc3OC)c2)cc1` , which is 28

Kindly note the recorded Response (1.0 μM (%)) for `COc1ccccc1C(=O)NCCNc1cccc(NS(=O)(=O)c2cc(-c3cccc(C(=O)N4CCCC4)c3)ccc2OC)c1` , which is 87

###

Provide the recorded Response (10 μM (%)) for the entries that follow.
Target: OX2R (Homo sapiens)
Construct: expressed in transfected cells; host or cells: CHO (Chinese hamster ovary) cells constitutively expressing the OX2R gene and NFAT-luciferase (CHOOX2R)
Assay: Evaluation of agonist activity against OX2R (CHOOX2R cells, Fura2AM fluorescence, FDSS3000)
Format: cell-based
Conditions: test compound 10 μM; CHOOX2R cells; relative to orexin-A as full agonist (100%)
# output: bare number, implied unit %

Kindly note the recorded Response (10 μM (%)) for `COc1ccccc1C(=O)NCCNc1cccc(NS(=O)(=O)c2cc(-c3cccc(C(=O)NCC(F)(F)F)c3)ccc2OC)c1` , which is 49

Kindly note the recorded Response (10 μM (%)) for `COc1cc(OC)cc(-c2ccc(OC)c(S(=O)(=O)Nc3cccc(NCCNC(=O)c4ccccc4OC)c3)c2)c1` , which is 68

Kindly note the recorded Response (10 μM (%)) for `COc1ccc(-c2cccc(C(=O)N(C)C)c2)cc1S(=O)(=O)Nc1cccc(NCCNC(=O)c2ccccc2C#N)c1` , which is 80

Kindly note the recorded Response (10 μM (%)) for `COc1ccc(-c2cccc(C(=O)N(C)C)c2)cc1S(=O)(=O)Nc1cccc(NCCNC(=O)c2ccc(Cl)s2)c1` , which is 69

Kindly note the recorded Response (10 μM (%)) for `COc1ccccc1C(=O)NCCNc1cccc(NS(=O)(=O)c2cc(-c3ccccc3C(=O)N(C)C)ccc2OC)c1` , which is 34

Kindly note the recorded Response (10 μM (%)) for `COc1ccc(-c2cccc(C(=O)N(C)C)c2)cc1S(=O)(=O)Nc1cccc(NCCNC(=O)c2cc(F)ccc2F)c1` , which is 66

Kindly note the recorded Response (10 μM (%)) for `COc1ccc(-c2cccc(C(=O)N(C)C)c2)cc1S(=O)(=O)Nc1cccc(NCCNC(=O)c2ncccc2Cl)c1` , which is 87

Kindly note the recorded Response (10 μM (%)) for `COc1ccccc1C(=O)NCCNc1cccc(NS(=O)(=O)c2cc(-c3cccc(C(=O)N4CCCC4)c3)ccc2OC)c1` , which is 76

Kindly note the recorded Response (10 μM (%)) for `COc1ccccc1C(=O)NCCNc1cccc(NS(=O)(=O)c2cc(-c3cccc(C(=O)N(C)C)c3)ccc2OC)c1` , which is 74

Kindly note the recorded Response (10 μM (%)) for `COc1ccc(C(=O)NCCNc2cccc(NS(=O)(=O)c3cc(-c4cccc(C(=O)N(C)C)c4)ccc3OC)c2)cc1` , which is 94

Kindly note the recorded Response (10 μM (%)) for `COc1ccc(-c2cccc(C(=O)N3CCC3)c2)cc1S(=O)(=O)Nc1cccc(NCCNC(=O)c2ccccc2Cl)c1` , which is 74

Kindly note the recorded Response (10 μM (%)) for `COc1ccccc1C(=O)NCCNc1cccc(NS(=O)(=O)c2cc(-c3cccc(C(=O)N4CCCCC4)c3)ccc2OC)c1` , which is 91

Kindly note the recorded Response (10 μM (%)) for `COc1ccc(-c2cccc(C(=O)N(C)C)c2)cc1S(=O)(=O)Nc1cccc(NCCNC(=O)c2cn(C)cn2)c1` , which is 72

Kindly note the recorded Response (10 μM (%)) for `COc1ccc(-c2cccc(C(=O)N(C)C)c2)cc1S(=O)(=O)Nc1cccc(NCCNC(=O)c2sccc2Cl)c1` , which is 94

###

Target: OX2R (Homo sapiens, UniProt O43614)
Assay: Evaluation of agonist activity against OX2R (CHOOX2R cells, Fura2AM fluorescence, FDSS3000)
Conditions: OX2R agonist activity; CHOOX2R cells
Provide the recorded pEC50 for the entries that follow.
# reply with the number alone; pEC50 is -log10 of concentration in mol/L

Kindly note the recorded pEC50 for COc1cccc(C(=O)NCCNc2cccc(NS(=O)(=O)c3cc(-c4cccc(C(=O)N(C)C)c4)ccc3OC)c2)c1 [Example 41] , which is 7.48

Kindly note the recorded pEC50 for COc1ccc(-c2cccc(C(=O)N(C)C)c2)cc1S(=O)(=O)Nc1cccc(NCCNC(=O)c2ccccc2C)c1 [Example 65] , which is 6.10

Kindly note the recorded pEC50 for COc1ccc(C(=O)NCCNc2cccc(NS(=O)(=O)c3cc(-c4cccc(C(=O)N(C)C)c4)ccc3OC)c2)cc1 [Example 44] , which is 5.98

Kindly note the recorded pEC50 for COc1ccc(-c2cccc(C(=O)N(C)C)c2)cc1S(=O)(=O)Nc1cccc(NCCNC(=O)c2sccc2Cl)c1 [Example 62] , which is 6.99

Kindly note the recorded pEC50 for COc1ccc(-c2cccc(C(=O)N(C)C)c2)cc1S(=O)(=O)Nc1cccc(NCCNC(=O)c2ccccc2Cl)c1 [Example 42] , which is 7.51

Kindly note the recorded pEC50 for COc1ccc(-c2cccc(C(=O)N(C)C)c2)cc1S(=O)(=O)Nc1cccc(NCCNC(=O)c2ccccc2F)c1 [Example 43] , which is 6.52

Kindly note the recorded pEC50 for COc1ccc(-c2cccc(C(=O)N(C)C)c2)cc1S(=O)(=O)Nc1cccc(NCCNC(=O)c2cc(F)cc(F)c2)c1 [Example 54] , which is 6.20
